Provide the reported Urine glucose excretion of each item.
test system: SD rats (type 2 diabetes model); assay: Urine glucose excretion in streptozotocin/high-fat high-sucrose diet type 2 diabetes model rats, glucose-oxidase method; assay type: in vivo, rat; conditions: 6 mg/kg intragastric, glucose 2 g/kg at 0.5 h, urine collected 0-12 h

Answer with the recorded Urine glucose excretion of COc1ccc(Oc2cc(C3OC(C)C(O)C(O)C3O)ccc2Cl)cc1 (stereo not drawn) only.
457 mg/200 g body weight of the rat

Provide one value: measured Urine glucose excretion of CCc1ccc(Cc2c(Cl)ccc3c2COC32OC(CO)C(O)C(O)C2O)cc1 (stereo not drawn) [drawing 258]
755 mg/200 g body weight of the rat

Output measured Urine glucose excretion for this item: CCOc1ccc(Cc2cc(C3OC(C)C(O)C(O)C3O)ccc2C)cc1 (stereo not drawn) [drawing 219]
700 mg/200 g body weight of the rat

Entry CCOc1ccc(Cc2cc(C3CCC(O)C(CO)S3)c(OC)cc2C)cc1 (stereo not drawn) [drawing 266] needs its Urine glucose excretion filled in; supply it.
730 mg/200 g body weight of the rat

Provide one value: measured Urine glucose excretion of CCc1ccc(Cc2cc(C3OC(CO)C(O)CC3O)ccc2C)cc1 (stereo not drawn)
230 mg/200 g body weight of the rat

Determine its reported Urine glucose excretion: C=C1OC(c2ccc(Cl)c(Cc3ccc(OC)cc3)c2)C(O)C(O)C1O (stereo not drawn)
410 mg/200 g body weight of the rat

Tell me its Urine glucose excretion given COc1ccc(Cc2cc(C3OC(CO)CC(O)C3O)ccc2Cl)cc1 (stereo not drawn) as the entry.
310 mg/200 g body weight of the rat

Kindly indicate its recorded Urine glucose excretion. Item: CCOc1ccc(Cc2cc(C3OC(CO)CC(O)C3O)ccc2Cl)cc1 (stereo not drawn) [drawing 229]
880 mg/200 g body weight of the rat

# return recorded Urine glucose excretion for input CCOc1ccc(Cc2cc(C3OC(C)(C)C(O)C(O)C3O)ccc2Cl)cc1 (stereo not drawn)
470 mg/200 g body weight of the rat

---

test system: Mice; conditions: single dose 750 mg/kg intragastric, 10 mice/group, observed one week
So I've got a bunch of molecules here, and I need their Behaviors after administration with the compound to be tested values.
All answers are understood in dead, so give the number only.

Provide one value: measured Behaviors after administration with the compound to be tested of COc1ccc(Cc2cc(C3OC(C)C(O)C(O)C3O)ccc2Cl)cc1 (centres unmarked) [drawing 281]
7

Fill in Behaviors after administration with the compound to be tested for record CCc1ccc(Cc2c(Cl)ccc3c2COC32OC(CO)C(O)C(O)C2O)cc1 (centres unmarked) [drawing 269]
7

Output Behaviors after administration with the compound to be tested of Cc1ccc(C2OC(C)C(O)CC2O)cc1Cc1ccc(-c2ccc(F)cc2)s1 (centres unmarked)
0

In one line, give reported Behaviors after administration with the compound to be tested of the entry CCOc1ccc(Cc2cc(C3OC(C)CC(O)C3O)ccc2Cl)cc1 (centres unmarked) .
1

Report Behaviors after administration with the compound to be tested, nothing else, for this molecule: CCc1ccc(Cc2c(Cl)ccc3c2COC32OC(C)C(O)C(O)C2O)cc1 (centres unmarked)
3

# return recorded Behaviors after administration with the compound to be tested for entry Cc1ccc(C2CC(O)C(O)C(CO)O2)cc1Cc1ccc(-c2ccc(F)cc2)s1 (centres unmarked)
5

State its Behaviors after administration with the compound to be tested: Cc1ccc(C2OC(CO)C(O)C(O)C2O)cc1Cc1ccc(-c2ccc(F)cc2)s1 (centres unmarked)
9

Input CCOc1ccc(Cc2cc(C3SC(CO)C(O)CC3O)c(OC)cc2C)cc1 (centres unmarked) [drawing 304] , output reported Behaviors after administration with the compound to be tested.
3

Query Behaviors after administration with the compound to be tested for OCC1CCC(O)C(c2ccc(Cl)c(Cc3ccc(O[C@H]4CCOC4)cc3)c2)O1 (some centres unmarked)
2

Could you please provide reported Behaviors after administration with the compound to be tested for CCCOc1ccc(Cc2cc(C3OC(C)C(O)C(O)C3O)ccc2Cl)cc1 (centres unmarked) ? Thanks!
6

Using the record for CCOc1ccc(Cc2cc([C@]34C[C@@H](O)[C@H](O)[C@](CO)(CO3)O4)ccc2Cl)cc1 , state its measured Behaviors after administration with the compound to be tested.
2

Write down Behaviors after administration with the compound to be tested measured for item CCOc1ccc(Cc2cc(C3CC(O)C(O)C(CO)S3)c(OC)cc2C)cc1 (centres unmarked)
3

Give the value of Behaviors after administration with the compound to be tested reported for the following: OCC1OC(c2ccc(Cl)c(Cc3ccc(O[C@H]4CCOC4)cc3)c2)C(O)C(O)C1O (some centres unmarked)
7

Kindly indicate its recorded Behaviors after administration with the compound to be tested. Item: CCOc1ccc(Cc2cc([C@@]34OC[C@@](CO)(C[C@H](O)[C@H]3O)O4)ccc2Cl)cc1
4

Name the recorded Behaviors after administration with the compound to be tested of the molecule listed here: CCOc1ccc(Cc2cc([C@]34OC[C@](CO)(O3)[C@@H](O)C[C@H]4O)ccc2Cl)cc1
3

Indicate the recorded Behaviors after administration with the compound to be tested value for this molecule: Cc1ccc(C2OC(C)C(O)C(O)C2O)cc1Cc1ccc(-c2ccc(F)cc2)s1 (centres unmarked)
4

Give reported Behaviors after administration with the compound to be tested value for OCC1CC(O)C(O)C(c2ccc(Cl)c(Cc3ccc(O[C@H]4CCOC4)cc3)c2)O1 (some centres unmarked)
2

# return recorded Behaviors after administration with the compound to be tested for entry CC1OC(c2ccc(F)c(Cc3cc4ccccc4s3)c2)C(O)C(O)C1O (centres unmarked)
2

Report Behaviors after administration with the compound to be tested for OCC1OC(c2ccc(Cl)c(Cc3ccc(O[C@H]4CCOC4)cc3)c2)CC(O)C1O (some centres unmarked)
2

Fill in reported Behaviors after administration with the compound to be tested for this entry: CCOc1ccc(Cc2cc(C3SC(CO)CC(O)C3O)c(OC)cc2C)cc1 (centres unmarked)
1

Using known records, supply Behaviors after administration with the compound to be tested for CCOc1ccc(Cc2cc([C@]34OC[C@](C)(O3)[C@@H](O)[C@H](O)[C@H]4O)ccc2Cl)cc1
3

Using known records, supply Behaviors after administration with the compound to be tested for CCOc1ccc(Cc2cc(C3CCC(O)C(CO)S3)c(OC)cc2C)cc1 (centres unmarked) [drawing 310]
0

For CCc1ccc(Cc2c(Cl)ccc3c2COC32CC(O)C(O)C(CO)O2)cc1 (centres unmarked) , write its Behaviors after administration with the compound to be tested.
2

Supply reported Behaviors after administration with the compound to be tested belonging to this molecule: Cc1ccc(C2OC(CO)C(O)CC2O)cc1Cc1ccc(-c2ccc(F)cc2)s1 (centres unmarked)
3

Please report the measured Behaviors after administration with the compound to be tested for CCOc1ccc(Cc2cc(C3SC(C)C(O)C(O)C3O)c(OC)cc2C)cc1 (centres unmarked)
4

Respond only with Behaviors after administration with the compound to be tested recorded for OCC1OC(c2ccc(Cl)c(Cc3ccc(O[C@H]4CCOC4)cc3)c2)C(O)CC1O (some centres unmarked)
0

Return value of Behaviors after administration with the compound to be tested for input CCc1ccc(Cc2c(Cl)ccc3c2COC32OC(CO)CC(O)C2O)cc1 (centres unmarked) , no commentary.
5

Determine its reported Behaviors after administration with the compound to be tested: CCOc1ccc(Cc2cc(C3SC(CO)C(O)CC3O)c(OC)cc2C)cc1 (centres unmarked) [drawing 303]
0

Report Behaviors after administration with the compound to be tested, nothing else, for this molecule: CCOc1ccc(Cc2cc(C3OC(CO)CC(O)C3O)ccc2Cl)cc1 (centres unmarked) [drawing 272]
2

Using known records, supply Behaviors after administration with the compound to be tested for OCC1CC(O)C(O)C(c2ccc(F)c(Cc3cc4ccccc4s3)c2)O1 (centres unmarked)
1

Using the record for CC1OC(c2ccc(Cl)c(Cc3ccc(O[C@H]4CCOC4)cc3)c2)C(O)C(O)C1O (some centres unmarked) , state its measured Behaviors after administration with the compound to be tested.
1

Name the recorded Behaviors after administration with the compound to be tested of the molecule listed here: CC1OC(c2ccc(F)c(Cc3cc4ccccc4s3)c2)CC(O)C1O (centres unmarked)
1

---

Provide the reported Behaviors after administration with the compound to be tested of each item.
test system: Mice; conditions: single dose 750 mg/kg intragastric, 10 mice/group, observed one week;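 note: test animals were mice weighing 18-20 g, with both sexes in equal numbers in each group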
Put your answer as a value accompanied by its unit after it.

Specify Behaviors after administration with the compound to be tested for OCC1OC(c2ccc(F)c(Cc3cc4ccccc4s3)c2)C(O)CC1O (stereo not shown) and stop.
0 dead

Please list Behaviors after administration with the compound to be tested recorded for the molecule CCOc1ccc(Cc2cc(C3OC(C)C(O)C(O)C3O)ccc2Cl)cc1 (stereo not shown) [drawing 282]
1 dead

Tell me its Behaviors after administration with the compound to be tested given CCOc1ccc(Cc2cc(C3OC(CO)C(O)CC3O)ccc2Cl)cc1 (stereo not shown) as the entry.
3 dead

Look up and state reported Behaviors after administration with the compound to be tested for Cc1ccc(C2OC(CO)CC(O)C2O)cc1Cc1ccc(-c2ccc(F)cc2)s1 (stereo not shown)
3 dead

Fill in Behaviors after administration with the compound to be tested for record CCOc1ccc(Cc2cc(C3OC(CO)C(O)C(O)C3O)ccc2Cl)cc1 (stereo not shown)
8 dead

Identify measured Behaviors after administration with the compound to be tested corresponding to CCc1ccc(Cc2c(Cl)ccc3c2COC32OC(CO)C(O)CC2O)cc1 (stereo not shown)
5 dead

Tell me its Behaviors after administration with the compound to be tested given OCC1OC(c2ccc(F)c(Cc3cc4ccccc4s3)c2)CC(O)C1O (stereo not shown) as the entry.
3 dead

State its Behaviors after administration with the compound to be tested for this molecule: CCc1ccc(Cc2c(Cl)ccc3c2COC32CC(O)CC(CO)O2)cc1 (stereo not shown)
1 dead

Return the recorded Behaviors after administration with the compound to be tested value; entry: CCOc1ccc(Cc2cc(C3CC(O)C(O)C(CO)O3)ccc2Cl)cc1 (stereo not shown)
2 dead

Identify measured Behaviors after administration with the compound to be tested associated with CCOc1ccc(Cc2cc([C@]34OC[C@](CO)(O3)[C@@H](O)[C@H](O)[C@H]4O)ccc2Cl)cc1
9 dead
